Target: MOP (Homo sapiens)
Construct: expressed in transfected cells; host or cells: CHO cells (membranes)
Sequence (P35372 whole entry): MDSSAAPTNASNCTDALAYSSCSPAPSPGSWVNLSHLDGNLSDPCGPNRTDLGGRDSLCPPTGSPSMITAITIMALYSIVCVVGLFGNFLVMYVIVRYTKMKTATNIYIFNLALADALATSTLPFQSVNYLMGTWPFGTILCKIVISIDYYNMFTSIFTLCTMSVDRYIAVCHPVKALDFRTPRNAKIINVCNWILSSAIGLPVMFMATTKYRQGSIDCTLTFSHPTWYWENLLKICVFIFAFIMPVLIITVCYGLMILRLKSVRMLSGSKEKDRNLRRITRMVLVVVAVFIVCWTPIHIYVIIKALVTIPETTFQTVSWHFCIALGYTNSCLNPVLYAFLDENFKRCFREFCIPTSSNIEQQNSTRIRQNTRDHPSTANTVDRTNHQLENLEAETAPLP
Assay: [35S]GTPγS binding, MOP
Type: biochemical
Details: 1 h; read-out: % stim MOP
Measurement Kind: Emax

[[record]]
smiles_record = "O=C(Cc1ccccc1)O[C@@]12CCC(=O)[C@@H]3Oc4c(O)ccc5c4[C@@]31CCN(CC1CC1)C2C5"
value = "32%"

[[record]]
smiles_record = "Cc1ccccc1CCC(=O)O[C@@]12CCC(=O)[C@@H]3Oc4c(O)ccc5c4[C@@]31CCN(CC1CC1)C2C5"
value = "48%"

[[record]]
smiles_record = "Cc1ccccc1CC(=O)O[C@@]12CCC(=O)[C@@H]3Oc4c(O)ccc5c4[C@@]31CCN(CC1CC1)C2C5"
value = "42%"

[[record]]
smiles_record = "Cc1ccc(CCC(=O)O[C@@]23CCC(=O)[C@@H]4Oc5c(O)ccc6c5[C@@]42CCN(CC2CC2)C3C6)cc1"
value = "25%"

[[record]]
smiles_record = "Cc1cccc(CC(=O)O[C@@]23CCC(=O)[C@@H]4Oc5c(O)ccc6c5[C@@]42CCN(CC2CC2)C3C6)c1"
value = "40%"

[[record]]
smiles_record = "O=C(CCc1ccccc1)O[C@@]12CCC(=O)[C@@H]3Oc4c(O)ccc5c4[C@@]31CCN(CC1CC1)C2C5"
value = "18%"

[[record]]
smiles_record = "Cc1cccc(CCC(=O)O[C@@]23CCC(=O)[C@@H]4Oc5c(O)ccc6c5[C@@]42CCN(CC2CC2)C3C6)c1"
value = "23%"

